- system: Isocitrate lyase (Magnaporthe oryzae (strain 70-15 / FGSC 8958) (Rice blast fungus)(Pyricularia oryzae), UniProt P0CT06)
- Sequence (P0CT06 whole entry): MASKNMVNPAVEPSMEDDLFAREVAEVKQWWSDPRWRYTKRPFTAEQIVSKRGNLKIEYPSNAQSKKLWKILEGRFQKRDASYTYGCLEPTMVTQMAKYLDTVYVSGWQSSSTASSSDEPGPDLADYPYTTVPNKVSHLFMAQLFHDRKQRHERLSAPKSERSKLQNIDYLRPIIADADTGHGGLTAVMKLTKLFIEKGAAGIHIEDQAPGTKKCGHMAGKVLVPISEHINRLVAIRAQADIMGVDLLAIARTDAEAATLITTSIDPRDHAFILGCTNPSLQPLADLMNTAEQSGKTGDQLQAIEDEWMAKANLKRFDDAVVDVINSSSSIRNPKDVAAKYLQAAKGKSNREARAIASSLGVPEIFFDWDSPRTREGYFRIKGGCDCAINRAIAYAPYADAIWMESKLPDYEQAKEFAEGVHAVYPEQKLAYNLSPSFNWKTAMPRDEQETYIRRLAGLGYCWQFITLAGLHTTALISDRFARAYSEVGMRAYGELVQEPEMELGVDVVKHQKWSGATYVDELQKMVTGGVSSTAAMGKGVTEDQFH
- testDescription: Inhibition of Magnaporthe grisea Guy 11 isocitrate lyase
attributeMeasured: IC50 (µM)

- O=C(O)CC[N+](=O)[O-]: 92.4
- C=C1CCC[C@@H]2[C@@](C)(CCC(CCCc3ccoc3)COS(=O)(=O)O)[C@H](C)CC[C@]12C (some centres undefined) [HALISULFATE 5]: 67.4
- CC1=CC[C@H]2C(C)(C)CCC[C@]2(C)[C@H]1C[C@@H](OS(=O)(=O)O)[C@H](C)CCC/C(C)=C/Cc1cc(O)ccc1O [HALISULFATE 1]: 12.6
- CC1=CC[C@H]2C(C)(C)CCC[C@]2(C)[C@H]1C[C@@H](O)[C@H](C)CCC/C(C)=C/Cc1cc(O)ccc1O [HYDROHALISULFATE 1]: 15

Source: ChEMBL document CHEMBL1144623
